protocol.notes: VP16 transactivation reporter inhibitors, counter-screen for LRH-1 inverse agonist project, cell-based, luminescence, high throughput (AID 651615)
protocol.conditions: Gal4-VP16 luciferase reporter cells, at 3.6 µM, active compounds read high
attribute.measured: inhibition (%)
Give your result in % as a bare value.

Would you please look over these solved cases?
| molecule | inhibition / % |
| --- | --- |
| c1cncc(-c2nc(N3CCCCCC3)c3ccccc3n2)c1 | 10.4 |
| CCOc1ccc(NC(=O)CSc2nnc(CNC(=O)c3cccs3)o2)cc1 | -0.65 |
| O=C(COC(=O)CCN1C(=O)C2CC=CCC2C1=O)NCCc1ccccc1 (stereo not given) | 3.03 |
| CC(C)CNC(=O)COC(=O)c1c2c(nc3ccccc13)/C(=C/c1cccs1)CC2 | -8.73 |

Moving on to another molecule below.
Query `COc1cc(N(C)C)ccc1C=c1c2ccccc2n2c1cc(-c1ccccc1)[n+]2C` yields inhibition of 92.5

* * *

Collected inhibition values appear next to each entry.
system.tested: Nuclear receptor coactivator 3 (Homo sapiens) (UniProt Q9Y6Q9)
Sequence (Q9Y6Q9 whole entry, looked up): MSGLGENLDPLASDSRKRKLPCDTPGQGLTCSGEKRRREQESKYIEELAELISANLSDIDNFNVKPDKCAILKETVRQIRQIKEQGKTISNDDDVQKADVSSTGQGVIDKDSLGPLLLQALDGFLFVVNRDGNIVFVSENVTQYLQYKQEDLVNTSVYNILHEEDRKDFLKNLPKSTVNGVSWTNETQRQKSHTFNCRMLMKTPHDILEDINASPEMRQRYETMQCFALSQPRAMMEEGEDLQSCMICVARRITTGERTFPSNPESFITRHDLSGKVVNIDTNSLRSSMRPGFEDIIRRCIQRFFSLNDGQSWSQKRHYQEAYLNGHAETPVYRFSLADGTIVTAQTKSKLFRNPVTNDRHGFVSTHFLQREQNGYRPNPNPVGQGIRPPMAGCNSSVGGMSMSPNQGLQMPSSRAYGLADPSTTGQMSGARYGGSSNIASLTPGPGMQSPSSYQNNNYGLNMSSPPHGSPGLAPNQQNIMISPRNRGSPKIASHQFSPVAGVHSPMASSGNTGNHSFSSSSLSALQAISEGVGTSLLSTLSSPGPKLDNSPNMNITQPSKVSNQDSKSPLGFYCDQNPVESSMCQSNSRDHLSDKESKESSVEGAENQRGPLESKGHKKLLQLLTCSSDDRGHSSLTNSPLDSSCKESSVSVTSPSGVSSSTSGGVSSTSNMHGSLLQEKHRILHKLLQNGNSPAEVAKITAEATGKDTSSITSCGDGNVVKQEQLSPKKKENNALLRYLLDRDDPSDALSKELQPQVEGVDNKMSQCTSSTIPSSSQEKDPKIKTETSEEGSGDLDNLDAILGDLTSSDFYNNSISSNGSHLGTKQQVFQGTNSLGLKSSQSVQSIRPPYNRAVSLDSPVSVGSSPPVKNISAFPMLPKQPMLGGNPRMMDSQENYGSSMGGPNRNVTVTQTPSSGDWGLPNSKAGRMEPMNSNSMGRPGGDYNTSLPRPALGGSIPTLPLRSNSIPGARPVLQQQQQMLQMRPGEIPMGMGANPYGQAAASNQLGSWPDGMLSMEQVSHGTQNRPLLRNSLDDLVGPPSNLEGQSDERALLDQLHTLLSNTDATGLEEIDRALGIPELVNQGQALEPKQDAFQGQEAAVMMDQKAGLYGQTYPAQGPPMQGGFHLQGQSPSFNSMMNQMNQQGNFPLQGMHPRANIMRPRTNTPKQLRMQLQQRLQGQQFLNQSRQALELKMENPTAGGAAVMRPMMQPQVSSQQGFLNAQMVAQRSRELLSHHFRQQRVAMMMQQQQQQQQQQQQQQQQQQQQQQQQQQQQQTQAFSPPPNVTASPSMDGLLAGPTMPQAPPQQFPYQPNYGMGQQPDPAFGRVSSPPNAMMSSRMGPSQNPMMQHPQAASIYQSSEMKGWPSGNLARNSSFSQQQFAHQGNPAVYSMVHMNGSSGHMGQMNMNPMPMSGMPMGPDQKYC
protocol.notes: SRC3 coactivator transcriptional activity inhibitors, confirmation, cell-based, luminescence, quadruplicate (AID 588792);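 also: 0% = DMSO treated cells and 100% = gossypol at 36 µM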
protocol.conditions: HEK293 GAL4-SRC3 luciferase reporter, at 3.6 µM, active compounds read high
Please reply with the bare figure in % and do not write the unit itself.

| compound | system.tested | inhibition [%] |
| --- | --- | --- |
| CC(C)[C@@H]1CC[C@@H](C)C[C@H]1OC(=O)C[n+]1cc(-c2ccc(Cl)cc2)n2c1CCCCC2 | Nuclear receptor coactivator 3 (Homo sapiens) (UniProt Q9Y6Q9) | 10.3 |

Entry `COc1ccc(OC)c(/C=C/c2ccnc3ccccc23)c1` : inhibition on Nuclear receptor coactivator 3 (Homo sapiens) (UniProt Q9Y6Q9) = 19.1

Let me check: `CCC(C)(C)c1ccc(Oc2ccc(N)cc2)cc1` , system Nuclear receptor coactivator 3 (Homo sapiens) (UniProt Q9Y6Q9), measured inhibition is 64.5

Query `O=C(NNC1=Nc2cccc3cccc1c23)c1ccccc1Br` on Nuclear receptor coactivator 3 (Homo sapiens) (UniProt Q9Y6Q9); inhibition returned: 19.4

inhibition value, target or system Nuclear receptor coactivator 3 (Homo sapiens) (UniProt Q9Y6Q9), for `CC(C)CN=C(NS(=O)(=O)c1ccccc1)C(Cl)(Cl)Cl` : 24.3

Known value: Nuclear receptor coactivator 3 (Homo sapiens) (UniProt Q9Y6Q9) inhibition of the compound `O=C(NCCc1ccccc1)c1ccc2c(c1)OCCCO2` equals 68.3

* * *

system.tested: Steroidogenic factor 1 (Homo sapiens) (UniProt Q13285)
Sequence (Q13285 whole entry, looked up): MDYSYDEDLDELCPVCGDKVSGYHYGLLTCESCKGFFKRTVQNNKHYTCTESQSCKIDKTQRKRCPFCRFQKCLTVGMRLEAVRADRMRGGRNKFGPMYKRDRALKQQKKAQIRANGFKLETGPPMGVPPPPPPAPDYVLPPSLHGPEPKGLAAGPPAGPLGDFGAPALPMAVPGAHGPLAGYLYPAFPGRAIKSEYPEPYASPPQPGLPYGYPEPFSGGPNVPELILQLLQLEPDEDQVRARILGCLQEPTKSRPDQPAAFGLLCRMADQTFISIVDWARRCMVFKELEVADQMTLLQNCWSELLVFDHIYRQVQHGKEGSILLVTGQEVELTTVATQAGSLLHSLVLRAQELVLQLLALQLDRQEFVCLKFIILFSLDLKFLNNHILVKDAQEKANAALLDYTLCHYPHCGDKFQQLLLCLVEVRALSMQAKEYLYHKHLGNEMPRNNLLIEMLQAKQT
protocol.notes: SF1 (NR5A1) inverse agonists, counter-screen for LRH-1 inverse agonist project, cell-based, luminescence, high throughput (AID 651614);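 also: cells cotransfected with StAR promoter reporter and SF1 expression vector; 0% = vehicle on cells with receptor and 100% = vehicle on cells lacking receptor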
protocol.conditions: cell-based SF1 luciferase reporter, at 3.6 µM, active compounds read high
Please use 1.0 whenever inhibition is not below 50%, and 0.0 whenever it is.

Check out these entries, answers already filled in.
| compound.smiles | system.tested | class |
| --- | --- | --- |
| CCOc1ccc(Cc2nnc(SCC(=O)Nc3ccc(C(C)=O)cc3)[nH]c2=O)cc1 | Steroidogenic factor 1 (Homo sapiens) (UniProt Q13285) | 0.0 |
| Cc1cc2nc(C3CCCCC3)c(Cc3ccsc3)n2c(C)c1Br | Steroidogenic factor 1 (Homo sapiens) (UniProt Q13285) | 0.0 |
| NS(=O)(=O)c1ccc(CCNC(=O)COc2ccc3c4c(c(=O)oc3c2)CCC4)cc1 | Steroidogenic factor 1 (Homo sapiens) (UniProt Q13285) | 0.0 |
| CCCCc1c(O)nc(SCC(=O)Nc2ccc3c(c2)CCC3)[nH]c1=O | Steroidogenic factor 1 (Homo sapiens) (UniProt Q13285) | 1.0 |
| CC(=NNC(=S)N1CC2CCC(CC2)C1)c1ccccn1 | Steroidogenic factor 1 (Homo sapiens) (UniProt Q13285) | 1.0 |

Tell me whether inhibition is at least 50% here: `O=C(OCC(=O)N1CCN(c2ccccc2)CC1)c1ccc2ccccc2n1`
0.0

# check: inhibition of `Cc1cc(-c2nn3c(-c4ccccc4)nnc3s2)c2ccccc2n1` is greater than or equal to 50%
0.0

Identify whether the reported inhibition of the following compound is 50% or greater: `O=C(N/N=C\c1ccc([N+](=O)[O-])s1)c1cncc(Br)c1`
1.0

Threshold query (inhibition >= 50%) on `CCCCCc1ccc(OCCCC[n+]2cccc(C)c2)c(CCCCC)c1`
1.0

# check: inhibition of `C=CC(=O)N1C/C(=C/c2ccc(Cl)cc2)C(=O)/C(=C\c2ccc(Cl)cc2)C1` is greater than or equal to 50%
1.0

Answer whether inhibition of `COc1cccc(C(=O)N/N=C2/SCC(=O)N2CCc2ccc(OC)c(OC)c2)c1` is greater than or equal to 50%.
0.0

Hi, just wondering whether `O=C(COC(=O)C1CC1)NCCc1ccc(Cl)cc1` shows inhibition of 50% or higher.
0.0

Does the reported inhibition for `Cc1ccc(Cn2cnc3ccccc32)cc1C` fall at or above the 50% mark?
0.0

* * *

Listed compounds paired with reported inhibition
Test system: transactivating tegument protein VP16 (Human herpesvirus 1), Gal4-VP16 luciferase reporter
protocol.notes: VP16 transactivation inhibitors, counter-screen for SRC3 inhibitor project, cell-based, luminescence, high throughput (AID 588794)
protocol.conditions: mammalian cells, VP16-driven luciferase reporter luminescence; at 3.6 µM; active compounds read high
Just the number please, in %, no unit attached.

Solved cases below.
| compound | recorded.value |
| --- | --- |
| O=C(Nc1nc(-c2ccc(F)c(F)c2)cs1)c1ccc(OCC2CCCO2)cc1 (centres undefined) | 36 |
| Cc1cc2[nH]c3c4ccccc4nc(C)c3c2cc1C | 33.8 |
| COc1cccc(C(=O)Nc2nc(-c3ccc(S(=O)(=O)N4CCOCC4)cc3)cs2)c1 | 9.14 |
| COc1ccc(C(=O)CN2C(=O)c3ccccc3S2(=O)=O)cc1 | 57.1 |

Form field inhibition, entry `CC1(C)N=C(N)N=C(N)N1CCCCc1ccccc1` : 24.4

// sample O=C(NCc1cccs1)C1CCCN(C(=O)Nc2ccccc2)C1 (centres undefined) , its inhibition was 31.9

* * *

system.tested: Nuclear receptor subfamily 5 group A member 2 (Homo sapiens) (UniProt O00482)
Sequence (O00482 whole entry, looked up): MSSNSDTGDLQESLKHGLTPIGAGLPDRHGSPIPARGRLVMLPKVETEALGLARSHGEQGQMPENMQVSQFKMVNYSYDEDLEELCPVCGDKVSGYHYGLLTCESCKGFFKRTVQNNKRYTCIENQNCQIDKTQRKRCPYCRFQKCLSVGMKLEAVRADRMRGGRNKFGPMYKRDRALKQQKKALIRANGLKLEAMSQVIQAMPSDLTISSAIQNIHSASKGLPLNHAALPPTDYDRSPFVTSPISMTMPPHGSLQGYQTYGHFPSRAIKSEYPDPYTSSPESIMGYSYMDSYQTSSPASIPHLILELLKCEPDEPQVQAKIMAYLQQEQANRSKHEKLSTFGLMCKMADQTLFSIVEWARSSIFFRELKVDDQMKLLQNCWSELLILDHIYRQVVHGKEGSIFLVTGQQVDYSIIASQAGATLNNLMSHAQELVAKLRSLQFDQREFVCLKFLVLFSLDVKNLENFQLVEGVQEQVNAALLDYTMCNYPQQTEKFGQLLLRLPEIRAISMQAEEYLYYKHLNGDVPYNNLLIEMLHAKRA
protocol.notes: LRH-1 (NR5A2) inverse agonists, retest, confirmation, cell-based, luminescence (AID 651613);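 also: HEK293T cells co-transfected with LRH-1 and StAR promoter luciferase reporter; 0% = vehicle wells and 100% = parental cells lacking receptor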
protocol.conditions: cell-based LRH-1 luciferase reporter, inverse agonism; at 3.6 µM; active compounds read high
// reported inhibition for each item listed
Please state the figure in %; there is no need to write the unit.

Please review the entries below; each comes with its answer.
| compound | system.tested | inhibition, % |
| --- | --- | --- |
| C(=NNc1ccc2ccccc2n1)c1ccccn1 | Nuclear receptor subfamily 5 group A member 2 (Homo sapiens) (UniProt O00482) | 51 |
| O=C(COC(=O)c1ccc[n+]([O-])c1)Nc1ccc([N+](=O)[O-])cc1Cl | Nuclear receptor subfamily 5 group A member 2 (Homo sapiens) (UniProt O00482) | 59.4 |
| Cc1cc(C)c2c(C)c(C(=O)NCc3ccncc3)oc2c1 | Nuclear receptor subfamily 5 group A member 2 (Homo sapiens) (UniProt O00482) | 46.3 |
| Cc1cc(Br)ccc1NC(=O)CN1C(=O)CCC1=O | Nuclear receptor subfamily 5 group A member 2 (Homo sapiens) (UniProt O00482) | 58.1 |
| O=C(Nc1ccc(Cl)cn1)c1ccc([N+](=O)[O-])o1 | Nuclear receptor subfamily 5 group A member 2 (Homo sapiens) (UniProt O00482) | 51.5 |
| COc1cccc(C2c3cc4c(cc3OC(N3CCCC3)C2C)OCO4)c1O (configuration not stated) | Nuclear receptor subfamily 5 group A member 2 (Homo sapiens) (UniProt O00482) | 64 |
| N#Cc1c2c(c(NCCOCCO)n3c1nc1ccccc13)CCCC2 | Nuclear receptor subfamily 5 group A member 2 (Homo sapiens) (UniProt O00482) | 40.5 |
| COc1ccc(Nc2nc(-c3cccnc3)nc3ccccc23)cn1 | Nuclear receptor subfamily 5 group A member 2 (Homo sapiens) (UniProt O00482) | 43.9 |
| CCn1c2ccccc2c2cc(/C=N/n3c(-c4cc(C)[nH]n4)n[nH]c3=S)ccc21 | Nuclear receptor subfamily 5 group A member 2 (Homo sapiens) (UniProt O00482) | 4.98 |
| COc1cccc(-c2cc(NC=O)c3ncc(-c4ccc(C(C)=O)cc4)n3c2)c1 | Nuclear receptor subfamily 5 group A member 2 (Homo sapiens) (UniProt O00482) | 65.2 |

Lab note: measured inhibition of `OC[C@H]1O[C@@H](n2cnc3c(NCc4ccco4)ncnc32)[C@H](O)[C@@H]1O` was 52.9

Quick note, inhibition for `NC(=S)Nc1ccc(Oc2ccc(NC(N)=S)cc2)cc1` landed at 31.2

* * *

Each entry below carries its recorded inhibition.
system.tested: Nuclear receptor coactivator 3 (Homo sapiens)
protocol.notes: SRC3 coactivator transcriptional activity inhibitors, confirmation, cell-based, luminescence, quadruplicate (AID 588792);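 also: 0% = DMSO treated cells and 100% = gossypol at 36 µM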
protocol.conditions: HEK293 GAL4-SRC3 luciferase reporter, at 3.6 µM, active compounds read high
Write the answer as a number in %, unit excluded.

Briefly, inhibition measured for `COc1cccc(/C=N/NC(=O)C(=O)Nc2ccccc2OC(F)(F)C(F)F)c1O` : 36.3
